- assay_overview: log P determination by HPLC on reversed-phase columns (C 18), analogously to OECD Guideline 117
- Assay type: physicochemical
- condition: reversed-phase C18 HPLC column; acidic range, pH 2.7, 0.1% aqueous formic acid and acetonitrile; read-out: log P[a] / log P(HCOOH)
observable: chromatographic logP

[[record]]
compound = "COc1ccc(B2OC(C)(C)C(C)(C)O2)cc1SCC(F)(F)F"
meas_value = 4.54

[[record]]
compound = "Cc1cc(F)c(N2C(=O)N(C)C(C)(C)C2=O)cc1[S+]([O-])CC(F)(F)F (stereo not drawn)"
meas_value = 2.04

[[record]]
compound = "Cc1cc(F)c(N2C(=O)C(=O)N(C3CCCCC3)C2=O)cc1SCC(F)(F)F"
meas_value = 4.32

[[record]]
compound = "COc1n[nH]c(=O)n1C1CC1 [drawing 121 R1=CH3 R10=cyclopropyl]"
meas_value = 0.27

[[record]]
compound = "Cc1cc(F)c(NC(=O)C(C)(C)O)cc1SCC(F)(F)F"
meas_value = 2.81

[[record]]
compound = "Cc1cc(F)c(N2C(=O)OCC2C)cc1SCC(F)(F)F (stereo not drawn)"
meas_value = 2.92

[[record]]
compound = "Cc1cc(F)c(N2C(=O)C(=O)N(C3CCCCC3)C2=O)cc1[S+]([O-])CC(F)(F)F (stereo not drawn)"
meas_value = 3.36

[[record]]
compound = "Fc1cc(F)c(SCC(F)(F)F)cc1Br"
meas_value = 3.89

[[record]]
compound = "Cc1cc(F)c(N2C(=O)N(C)C(=O)C2(C)C)cc1SCC(F)(F)F"
meas_value = 3.11


----------
- assay_overview: log P determination by HPLC on reversed-phase columns (C 18), analogously to OECD Guideline 117
- Type: physicochemical
- condition: reversed-phase C18 HPLC column; neutral range, pH 7.8, 0.001 molar aqueous ammonium hydrogencarbonate and acetonitrile; read-out: log P[b] / log P(neutral)
Binary call on chromatographic logP: Met from 3 upward, Not met beneath that.

[[record]]
compound = "Cc1cc(F)c(N2C(=O)CSC2=NCC(F)(F)F)cc1[S+]([O-])CC(F)(F)F (stereo not drawn) [Example 13]"
label_class = "Not met"

[[record]]
compound = "Cn1c(OCC2CC2)n[nH]c1=O [drawing 121 R1=CH2-cyclopropyl R10=CH3]"
label_class = "Not met"

[[record]]
compound = "Cc1ccc(-n2c(=O)n(C)c(=O)n2C)cc1SCC(F)(F)F [Example 20]"
label_class = "Not met"

[[record]]
compound = "FC(F)(F)CSc1cc(Br)ccc1Br [VIIa-13]"
label_class = "Met"

[[record]]
compound = "Cc1cc(F)c(N2C(=O)C(=O)N(C3CCCCC3)C2=O)cc1SCC(F)(F)F [Example 185]"
label_class = "Met"

[[record]]
compound = "Cc1cc(F)c(-n2c(=S)n(C3CC3)c(=O)n2C)cc1SCC(F)(F)F"
label_class = "Met"

[[record]]
compound = "OB(O)c1cc(SCC(F)(F)F)c(Cl)cc1Cl [VIIIa-6]"
label_class = "Not met"

[[record]]
compound = "Cc1cc(C)c(N2CCNC2=O)cc1SCC(F)(F)F [Example 1]"
label_class = "Not met"

[[record]]
compound = "COc1n[nH]c(=O)n1C1CC1 [drawing 121 R1=CH3 R10=cyclopropyl]"
label_class = "Not met"

[[record]]
compound = "Cc1cc(F)c(B2OC(C)(C)C(C)(C)O2)cc1SCC(F)(F)F"
label_class = "Met"

[[record]]
compound = "Cc1cc(F)c(N2C(=O)CSC2=NCC(F)(F)F)cc1SCC(F)(F)F [Example 11]"
label_class = "Met"

[[record]]
compound = "Cc1cc(F)c(N2C(=O)C(=O)N(C3CCCCC3)C2=O)cc1[S+]([O-])CC(F)(F)F (stereo not drawn) [Example 186]"
label_class = "Met"

[[record]]
compound = "[O-][S+](CC(F)(F)F)c1cc(B(O)O)c(Cl)cc1Cl (stereo not drawn) [VIIIb-6]"
label_class = "Not met"

[[record]]
compound = "Fc1cc(F)c(SCC(F)(F)F)cc1Br [VIIa-15]"
label_class = "Met"

[[record]]
compound = "C=CCOc1n[nH]c(=O)n1C1CC1 [drawing 121 R1=CH2CH═CH2 R10=cyclopropyl]"
label_class = "Not met"

[[record]]
compound = "Cc1cc(F)c(NC(=S)NCC(F)(F)F)cc1SCC(F)(F)F"
label_class = "Met"

[[record]]
compound = "Cc1cc(F)c(-n2c(=O)n(C)n(C)c2=O)cc1[S+]([O-])CC(F)(F)F (stereo not drawn) [Example 117]"
label_class = "Not met"

[[record]]
compound = "Cc1cc(C)c([S+]([O-])CC(F)(F)F)cc1N1CCNC1=O (stereo not drawn) [Example 4]"
label_class = "Not met"

[[record]]
compound = "Cc1cc(F)c(-n2c(=S)n(C3CC3)c(=S)n2C)cc1SCC(F)(F)F [Example 182]"
label_class = "Met"

[[record]]
compound = "Fc1cc(Cl)c(SCC(F)(F)F)cc1Br [VIIa-2]"
label_class = "Met"

